system-name: hROMK (human Kir1.1) (Homo sapiens (Human))
Sequence (P48048 whole entry): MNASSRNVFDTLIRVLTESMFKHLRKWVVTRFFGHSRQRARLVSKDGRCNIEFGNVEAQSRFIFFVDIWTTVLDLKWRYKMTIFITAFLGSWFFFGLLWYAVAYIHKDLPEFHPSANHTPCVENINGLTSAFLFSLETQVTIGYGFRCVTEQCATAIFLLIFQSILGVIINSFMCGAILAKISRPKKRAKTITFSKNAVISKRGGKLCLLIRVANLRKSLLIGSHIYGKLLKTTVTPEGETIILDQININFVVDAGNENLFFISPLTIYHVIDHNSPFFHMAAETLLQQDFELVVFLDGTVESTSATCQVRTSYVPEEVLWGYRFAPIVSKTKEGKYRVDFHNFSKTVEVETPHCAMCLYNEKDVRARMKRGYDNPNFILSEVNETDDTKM
measurement-description: Thallium Flux Assay
test-conditions: CHO T-Rex hROMK stable cell line, 10-point concentration response; read-out: hROMK Th+ Flux IC50
pIC50: −log10 of the molar value.
Lab note: compare pIC50 against 6. Equal or greater, write T. Smaller, write F.

Before answering, review these 3 worked examples.
In [3]: df
Out[3]:
                                   compound  assigned_label
0  Cc1c(C(O)CN2CCc3nc(-n4ncc5c(C#N)cncc54)ncc3C2)ccc2c1COC2=O (single isomer, unassigned) [Example 43-I]               T
1  Cc1c(C(O)CN2CCc3nc(-n4cc(C#N)cn4)ncc3C2)ccc2c1COC2=O (single isomer, unassigned)               T
2  Cc1c(C(O)CN2CCc3nc(-n4ccc5cc(C#N)ccc54)ncc3C2)ccc2c1COC2=O (single isomer, unassigned) [Example 16-I]               T

Evaluate "Cc1c(CN2CCc3nc(-n4ccc5cc(C#N)ccc54)ncc3C2)ccc2c1COC2=O" : pIC50 at minimum 6? F

Evaluate Cc1c(C(O)CN2CCc3nc(-n4ccnc4C)ncc3C2)ccc2c1COC2=O (single isomer, unassigned) : pIC50 at minimum 6? T

Evaluate Cc1c(C(O)CN2CCc3nc(-n4ccnc4)ncc3C2)ccc2c1COC2=O (single isomer, unassigned) : pIC50 at minimum 6? T

Evaluate "N#Cc1ccc(Nc2ccc3c(c2)CCN(Cc2ccc4c(c2)COC4=O)C3)cc1F" : pIC50 at minimum 6? T

Evaluate Cc1c(C(O)CN2CCc3nc(Nc4ccc(C#N)c(F)c4)ncc3C2)ccc2c1COC2=O (single isomer, unassigned) : pIC50 at minimum 6? T

Evaluate "Cc1c(N2CCc3cc(NCc4ccc(C#N)c(F)c4)ccc3C2)ccc2c1COC2=O" : pIC50 at minimum 6? F

Evaluate Cc1c(C(O)CN2CCc3nc(-n4cc(C#N)c5ncccc54)ncc3C2)ccc2c1COC2=O (single isomer, unassigned) : pIC50 at minimum 6? T

Evaluate Cc1c(C(O)CN2CCc3nc(-n4ncc5c(C#N)cccc54)ncc3C2)ccc2c1COC2=O (single isomer, unassigned) [Example 12-II] : pIC50 at minimum 6? T

Evaluate Cc1c(C(O)CN2CCc3nc(N4CCc5c(C#N)cccc54)ncc3C2)ccc2c1COC2=O (single isomer, unassigned) [Example 65-I] : pIC50 at minimum 6? T

Evaluate Cc1c(C(O)CN2CCc3nc(-n4ccc5c(C#N)ccnc54)ncc3C2)ccc2c1COC2=O (single isomer, unassigned) [Example 19-I] : pIC50 at minimum 6? T

Evaluate Cc1c(C(O)CN2CCc3nc(-n4cnc5ncccc54)ncc3C2)ccc2c1COC2=O (single isomer, unassigned) : pIC50 at minimum 6? T

Evaluate Cc1c(C(O)CN2CCc3nc(Nc4cccnc4)ncc3C2)ccc2c1COC2=O (single isomer, unassigned) : pIC50 at minimum 6? T

Evaluate "Cc1c(CN2CCc3cc(Nc4ncc(C#N)cn4)ccc3C2)ccc2c1COC2=O" : pIC50 at minimum 6? F

Evaluate Cc1c(C(O)CN2CCc3nc(-n4ccc5cc(C#N)cnc54)ncc3C2)ccc2c1COC2=O (single isomer, unassigned) : pIC50 at minimum 6? F

Evaluate "Cc1c(CN2CCc3nc(Nc4ccc5oc(=O)n(C)c5c4)ncc3C2)ccc2c1COC2=O" : pIC50 at minimum 6? F

Evaluate Cc1c(C(O)CN2CCc3nc(-n4ncc5c(C#N)cncc54)ncc3C2)ccc2c1COC2=O (single isomer, unassigned) [Example 43-II] : pIC50 at minimum 6? T
